MEASURED_ATTRIBUTE: melting point

MOLECULE | RESULT_VALUE
COC(=O)c1ccc(C)c(C#CCCCC2(S(=O)(=O)c3ccc(OC)cc3)SC(=O)NC2=O)c1 (stereo not shown) [Example 155] | 119 to 121 °C

input: Look up melting point for this molecule: Cc1ccc(S(=O)(=O)C2(CCCC#Cc3ccc(C(C)(C)C)cc3)SC(=O)NC2=O)cc1 (stereo not shown) [Example 157]
output: 134 to 138 °C

input: What about this molecule? COc1ccc(S(=O)(=O)C2(CCCC#Cc3cccs3)SC(=O)NC2=O)cc1 (stereo not shown) [Example 166]
output: 60 to 66 °C

input: Record: COc1ccc(S(=O)(=O)C2(CCCC#Cc3ccccc3Cl)SC(=O)NC2=O)cc1 (stereo not shown) [Example 101]
output: 133 to 135 °C

input: # repeat for Cc1ccc(S(=O)(=O)C2(CC#Cc3ccc(Oc4ccccc4)cc3)SC(=O)NC2=O)cc1 (stereo not shown) [Example 170]
output: 64 to 66 °C

====

STUDY_TARGET: FPTase (Homo sapiens, UniProt P49354+P49356)
TEST_DESCRIPTION: in vitro FTase Inhibition Assay, H-Ras used as substrate for farnesylation
Type: biochemical
STUDY_CONDITIONS: Table I, read-out: IC50 H-Ras*
pIC50: −log10 of the molar value.
Listed here are compounds together with their documented pIC50.

Example entries and their recorded answers appear below.
COMPOUND | pIC50
O=C1NC(=O)C(CCCC#Cc2ccc(Cl)cc2)(S(=O)(=O)c2ccc(F)cc2)S1 (stereo not drawn) | 6.82 to 7.30
COc1ccc(S(=O)(=O)C2(CCCC#Cc3ccc(Br)cc3C)SC(=O)NC2=O)cc1 (stereo not drawn) | 7.52
COc1ccc(S(=O)(=O)C2(CCCC#Cc3cc(NC(=O)OCc4ccc([N+](=O)[O-])cc4)ccc3C)SC(=O)N(C(=O)OCc3ccc([N+](=O)[O-])cc3)C2=O)cc1 (stereo not drawn) | 8.00 to 8.15

input: Can you share its pIC50? I mean this compound: COc1cccc(S(=O)(=O)C2(CCCC#Cc3cccs3)SC(=O)NC2=O)c1 (stereo not drawn)
output: 6.82

input: Subsequent entry: CCCCOC(=O)Nc1ccc(C)c(C#CCCCC2(S(=O)(=O)c3ccc(OC)cc3)SC(=O)NC2=O)c1 (stereo not drawn)
output: 7.49 to 8.00

input: # repeat for COc1ccc(S(=O)(=O)C2(CCCC#Cc3cc(NC(=O)OCc4ccccc4)ccc3C)SC(=O)NC2=O)cc1 (stereo not drawn)
output: 7.49 to 8.00

input: // same read-out, input: COc1ccc(S(=O)(=O)C2(CCCC#Cc3ccc(Cl)cc3)SC(=O)NC2=O)cc1 (stereo not drawn)
output: 6.82 to 7.12

input: Proceed to CC(=O)Nc1ccc(S(=O)(=O)C2(CCCC#Cc3ccc(Cl)cc3)SC(=O)NC2=O)cc1 (stereo not drawn)
output: 6.74 to 6.89

input: Try the compound Cc1ccc(S(=O)(=O)C2(CC#Cc3ccc(Oc4ccccc4)cc3)SC(=O)NC2=O)cc1 (stereo not drawn)
output: 6.42

input: Next up: COc1ccc(S(=O)(=O)C2(CCCC#Cc3cccc(Cl)c3)SC(=O)NC2=O)cc1 (stereo not drawn)
output: 7.49 to 7.52

input: COc1ccc(S(=O)(=O)C2(CCCC#Cc3ccc(Cl)cc3)SC(=O)N(CCCn3ccnc3)C2=O)cc1 (stereo not drawn) ?
output: 5.54

input: For COc1ccc(S(=O)(=O)C2(CCCC#Cc3cc([N+](=O)[O-])ccc3OC)SC(=O)NC2=O)cc1 (stereo not drawn) then?
output: 7.09 to 7.10

input: Check O=C1NC(=O)C(CCCC#Cc2ccc(-n3cccc3)cc2)(S(=O)(=O)c2ccc(OC(F)(F)F)cc2)S1 (stereo not drawn) too.
output: 5.89

input: Consider next the compound COc1ccc(S(=O)(=O)C2(CCCC#Cc3ccc(Cl)cc3C)SC(=O)NC2=O)cc1 (stereo not drawn) in the same way.
output: 7.52 to 7.77

input: And then COc1ccc(S(=O)(=O)C2(CCCC#Cc3cc(NC(=O)OCC(C)(C)C)ccc3C)SC(=O)N(C(=O)OCC(C)(C)C)C2=O)cc1 (stereo not drawn) , what is it?
output: 8.46 to 8.52

input: Request: Cc1ccc([N+](=O)[O-])cc1C#CCCCC1(S(=O)(=O)c2ccc(Oc3ccccc3)cc2)SC(=O)NC1=O (stereo not drawn)
output: 7.10 to 7.28

input: Try this compound too: Cc1ccc(Cl)cc1C#CCCCC1(S(=O)(=O)c2ccc(OC(F)(F)F)cc2)SC(=O)NC1=O (stereo not drawn)
output: 6.77 to 6.85

input: // same read-out, input: COc1ccc(S(=O)(=O)C2(CCCC#Cc3ccc(OC(F)(F)F)cc3)SC(=O)NC2=O)cc1 (stereo not drawn)
output: 6.82 to 7.15

input: What about this compound? O=C1NC(=O)C(CCCC#Cc2cc(Cl)ccc2Cl)(S(=O)(=O)c2ccc(I)cc2)S1 (stereo not drawn)
output: 6.49 to 7.92

input: Quick one: CCCCOC(=O)Nc1ccc(C)c(C#CCCCC2(S(=O)(=O)c3ccc(OC)cc3)SC(=O)N(C(=O)OCCCC)C2=O)c1 (stereo not drawn)
output: 7.68 to 8.00

input: Also need COc1ccc(S(=O)(=O)C2(CC#Cc3cccnc3)SC(=O)NC2=O)cc1 (stereo not drawn) , thanks.
output: 5.82

input: How about this compound: COc1ccc(S(=O)(=O)C2(CCCC#Cc3cc(Cl)ccc3C)SC(=O)NC2=O)cc1 (stereo not drawn)
output: 7.49 to 7.64

input: Entry to check: Cc1ccc(S(=O)(=O)C2(CCCC#Cc3ccc(C(C)(C)C)cc3)SC(=O)NC2=O)cc1 (stereo not drawn)
output: 6.57

====

melting point values for the compounds below.

COMPOUND | melting point
COc1ccc(SC2(CCCCCCCCCC#Cc3ccc(Cl)cc3)SC(=O)NC2=O)cc1 (centres unmarked) | 54 to 56 °C
COc1ccc(S(=O)(=O)C2(CCCC#Cc3cc(C(=O)NC(C)(C)C)ccc3C)SC(=O)NC2=O)cc1 (centres unmarked) | 205 to 208 °C
COC(=O)c1ccc(C#CCCCC2(S(=O)(=O)c3ccc(OC)cc3)SC(=O)NC2=O)c(C)c1 (centres unmarked) | 128 to 130 °C
Cc1ccc([N+](=O)[O-])cc1C#CCCCC1(S(=O)(=O)c2ccc(I)cc2)SC(=O)NC1=O (centres unmarked) | 188 to 190 °C
Cc1ccc(S(=O)(=O)C2(CCCC#Cc3ccc(Cl)cc3)SC(=O)NC2=O)cc1 (centres unmarked) | 176 to 177 °C
O=C1NC(=O)C(CCCC#Cc2ccc(-n3cccc3)cc2)(S(=O)(=O)c2ccc(OC(F)(F)F)cc2)S1 (centres unmarked) | 204 to 206 °C
COc1ccc(S(=O)(=O)C2(CCCC#Cc3ccc(C(F)(F)F)cc3)SC(=O)NC2=O)cc1 (centres unmarked) | 160 to 163 °C

# input for lookup
input: Fill in the blank: the reported melting point of COc1ccc(S(=O)(=O)C2(CCCC#Cc3cccc(Cl)c3)SC(=O)NC2=O)cc1 (centres unmarked) is ____.
output: 134 to 136 °C

====

STUDY_TARGET: FPTase (Homo sapiens, UniProt P49354+P49356)
TEST_DESCRIPTION: in vitro FTase Inhibition Assay, H-Ras used as substrate for farnesylation
Type: biochemical
STUDY_CONDITIONS: Table I, read-out: IC50 H-Ras*
pIC50: −log10 of the molar value.
Recorded pIC50 for the following compounds

Completed entries (count: 5):
COMPOUND | RESULT_VALUE
COc1ccc(S(=O)(=O)C2(CCCC#Cc3cccc([N+](=O)[O-])c3)SC(=O)NC2=O)cc1 (stereo not drawn) [Example 118] | 7.15
COc1ccc(S(=O)(=O)C2(CCCC#Cc3cc(NC(=O)OCc4ccc([N+](=O)[O-])cc4)ccc3C)SC(=O)NC2=O)cc1 (stereo not drawn) [Example 176] | 7.49 to 8.49
Cc1cc(Br)ccc1C#CCCCC1(S(=O)(=O)c2ccc(I)cc2)SC(=O)NC1=O (stereo not drawn) [Example 144] | 7.39 to 7.40
O=C1NC(=O)C(CCCC#Cc2cccc([N+](=O)[O-])c2)(S(=O)(=O)c2ccc(Oc3ccccc3)cc2)S1 (stereo not drawn) [Example 119] | 6.85 to 6.89
COc1ccc(S(=O)(=O)C2(CCCC#Cc3cc(NC(=O)OCC(C)(C)C)ccc3C)SC(=O)NC2=O)cc1 (stereo not drawn) [Example 180] | 7.49 to 8.70

input: Need pIC50 of O=C1NC(=O)C(CCCC#Cc2ccc(Cl)cc2)(S(=O)(=O)c2ccc(Oc3ccccc3)cc2)S1 (stereo not drawn) [Example 106] , thanks.
output: 6.60 to 6.64

input: Ok, now Cc1cc([N+](=O)[O-])ccc1C#CCCCC1(S(=O)(=O)c2ccc(Oc3ccccc3)cc2)SC(=O)NC1=O (stereo not drawn) [Example 129]
output: 7.00

input: Input COc1ccc(S(=O)(=O)C2(CCCC#Cc3ccc(NC(=O)OC(C)(C)C)cc3C)SC(=O)NC2=O)cc1 (stereo not drawn) [Example 149]
output: 6.30 to 6.35

input: Try COc1ccc(S(=O)(=O)C2(CCCC#Cc3cc(NC(=O)OC(C)C)ccc3C)SC(=O)N(C(=O)OC(C)C)C2=O)cc1 (stereo not drawn) [Example 229] next.
output: 7.70 to 8.22

input: Another compound to look at: COc1ccc(S(=O)(=O)C2(CCCC#Cc3cc(NC(=O)OC(C)(C)C)ccc3C)SC(=O)NC2=O)cc1 (single isomer, unassigned; less polar) [Example 222]
output: 8.48

input: Same lookup for COc1ccc(S(=O)(=O)C2(CCCC#Cc3cc(F)cc([N+](=O)[O-])c3)SC(=O)NC2=O)cc1 (stereo not drawn) [Example 133] , please.
output: 6.70 to 7.40

input: What do you get for Cc1ccc(S(=O)(=O)C2(CCC/C=C\c3ccc(Cl)cc3)SC(=O)NC2=O)cc1 (stereo not drawn) [Example 217] ?
output: 7.00
